molecular target: Heat shock protein HSP 90-alpha (Homo sapiens) (UniProt P07900); assay: Hsp90 blockade concentration-response – dose response (AID 712); conditions: Hsp90 inhibition assay
Calls of active or inactive are those of the source. No rule for the calls is given here.
# output must be one of t (active), f (inactive)

{"MOLECULE": "O=C1NCCCC2c3cc(O)c4ccccc4c3OC12N1CCCCC1 (stereo unspecified)", "LABEL CLASS": "t"}
{"MOLECULE": "Cc1ccc(NC(=O)CC2SCCNC2=O)cc1Cl (stereo unspecified)", "LABEL CLASS": "f"}
{"MOLECULE": "COc1cc(NCCCC(C)=NO)c2nccc(OCc3ccccc3)c2c1", "LABEL CLASS": "f"}
{"MOLECULE": "COc1ccc(C2=NO[C@@H]3C(=O)N(c4ccc5c(c4)OCCO5)C(=O)[C@H]23)cc1OC", "LABEL CLASS": "t"}
{"MOLECULE": "Cc1cc(=O)oc2c(N)c(O)ccc12", "LABEL CLASS": "f"}

q: Give the logged outcome of this assay for the following molecule: Cc1c(-c2nn(C)c(=O)c3ccccc23)oc2ccc(F)cc2c1=O
a: t
